- TARGET ENTITY: Human immunodeficiency virus type 1 protease (Human immunodeficiency virus 1)
- ASSAY INFO: In vivo antiviral activity (IC50) against HIV-1 protease.
- Type: organism-based
# strict inequality: ED50 < 30 nM yields yes, everything else yields no

* COC(=O)N[C@H](C(=O)N[C@@H](Cc1ccccc1)C(O)CN(Cc1ccc(C#N)cc1)NC(=O)[C@@H](NC(=O)OC)C(C)C)C(C)C (some centres not stated) | no
* CCOC(=O)NC(C(=O)NN(CC1CCCCC1)C[C@@H](O)[C@H](Cc1ccccc1)NC(=O)C(NC(=O)OC)C(C)C)C(C)C (some centres not stated) | yes
* COCCOC(=O)NC(C(=O)N[C@@H](Cc1ccccc1)[C@H](O)CN(CC1CCCCC1)NC(=O)C(NC(=O)OCCOC)C(C)C)C(C)C (some centres not stated) | no
* COCCOCCOC(=O)NC(C(=O)N[C@@H](Cc1ccccc1)[C@H](O)CN(CC1CCCCC1)NC(=O)C(NC(=O)OCCOCCOC)C(C)C)C(C)C (some centres not stated) | no
* COC(=O)N[C@H](C(=O)N[C@@H](Cc1ccccc1)C(O)CN(Cc1ccc(C(F)(F)F)cc1)NC(=O)[C@@H](NC(=O)OC)C(C)C)C(C)C (some centres not stated) | yes
* COC(=O)N[C@H](C(=O)N[C@@H](Cc1ccccc1)C(O)CN(Cc1ccc(F)cc1)NC(=O)[C@@H](NC(=O)OC)C(C)C)C(C)C (some centres not stated) | no
* COCCOC(=O)NC(C(=O)NC(Cc1ccccc1)C(O)CN(CC1CCCCC1)NC(=O)C(NC(=O)OC)C(C)C)C(C)C (configuration not stated) | yes

----------
- TARGET ENTITY: UniProtKB Q72874
- ASSAY INFO: In vivo antiviral activity (IC50) against HIV-1 protease.
- Format: organism-based
ENDPOINT NAME: ED50

• C=CCOC(=O)NC(C(=O)N[C@@H](Cc1ccccc1)[C@H](O)CN(CC1CCCCC1)NC(=O)C(NC(=O)OCC=C)C(C)C)C(C)C (some centres undefined) = 83 nM
• CCOC(=O)NC(C(=O)NN(CC1CCCCC1)C[C@H](O)[C@H](Cc1ccccc1)NC(=O)[C@H](CC(N)=O)NC(=O)c1ccc2ccccc2n1)C(C)C (some centres undefined) = 9.4 nM
• COC(=O)N[C@H](C(=O)N[C@@H](Cc1ccccc1)C(O)CN(CC1CCCCC1)NC(=O)[C@@H](NC(=O)OC)C(C)C)C(C)C (some centres undefined) = 18 nM
• CCOC(=O)NC(C(=O)N[C@@H](Cc1ccccc1)[C@H](O)CN(CC1CCCCC1)NC(=O)C(NC(=O)OCCOC)C(C)C)C(C)C (some centres undefined) = 15 nM
• COC(=O)N[C@H](C(=O)N[C@@H](Cc1ccccc1)C(O)CN(Cc1ccc(OC)cc1)NC(=O)[C@@H](NC(=O)OC)C(C)C)C(C)C (some centres undefined) = 9 nM
• CC(C)C(NC(=O)OCc1ccccc1)C(=O)NN(CC1CCCCC1)C[C@H](O)[C@H](Cc1ccccc1)NC(=O)[C@H](CC(N)=O)NC(=O)c1ccc2ccccc2n1 (some centres undefined) = 9.8 nM
• COC(=O)NC(C(=O)NN(CC1CCCCC1)C[C@H](O)[C@H](Cc1ccccc1)NC(=O)[C@H](CC(N)=O)NC(=O)c1ccc2ccccc2n1)C(C)C (some centres undefined) = 18 nM
• COC(=O)N[C@H](C(=O)N[C@@H](Cc1ccccc1)[C@H](O)CN(CC1CCCCC1)NC(=O)[C@@H](NC(C)=O)C(C)C)C(C)C = 300 nM
• COC(=O)N[C@H](C(=O)N[C@@H](Cc1ccccc1)C(O)CN(Cc1ccc(OC)c(OC)c1OC)NC(=O)[C@@H](NC(=O)OC)C(C)C)C(C)C (some centres undefined) = 28 nM
• COC(=O)N[C@H](C(=O)N[C@@H](Cc1ccccc1)C(O)CN(CCC(C)C)NC(=O)[C@@H](NC(=O)OC)C(C)C)C(C)C (some centres undefined) = 2.7 nM
• CCOC(=O)NC(C(=O)NN(CC1CCCCC1)C[C@@H](O)[C@H](Cc1ccccc1)NC(=O)C(NC(=O)OCCOC)C(C)C)C(C)C (some centres undefined) = 24 nM
• CCOC(=O)NC(C(=O)N[C@@H](Cc1ccccc1)[C@H](O)CN(CC1CCCCC1)NC(=O)C(NC(=O)OC)C(C)C)C(C)C (some centres undefined) = 72 nM
• COCCOC(=O)NC(C(=O)NN(CC1CCCCC1)C[C@@H](O)[C@H](Cc1ccccc1)NC(=O)C(NC(=O)OC)C(C)C)C(C)C (some centres undefined) = 28 nM
• COC(=O)NC(C(=O)NN(Cc1ccc(OC)cc1)C[C@H](O)[C@H](Cc1ccccc1)NC(=O)[C@H](CC(N)=O)NC(=O)c1ccc2ccccc2n1)C(C)C (some centres undefined) = 118 nM

----------
- TARGET ENTITY: Human immunodeficiency virus type 1 protease (Human immunodeficiency virus 1)
- ASSAY INFO: In vivo for antiviral activity (ED90) against HIV-1 protease.
- Format: organism-based
Reported ED90 values for the following compounds.
ENDPOINT NAME: ED90 (nM)

• COC(=O)N[C@H](C(=O)N[C@@H](Cc1ccccc1)[C@H](O)CN(CC1CCCCC1)NC(=O)[C@@H](NC(C)=O)C(C)C)C(C)C = 1000
• CC(C)CN(C[C@H](O)[C@H](Cc1ccccc1)NC(=O)[C@H](CC(N)=O)NC(=O)c1ccc2ccccc2n1)NC(=O)C(NC(=O)OCc1ccccc1)C(C)C (stereo partly drawn) = 30
• C=CCOC(=O)NC(C(=O)N[C@@H](Cc1ccccc1)[C@H](O)CN(CC1CCCCC1)NC(=O)C(NC(=O)OCC=C)C(C)C)C(C)C (stereo partly drawn) = 1000
• COC(=O)N[C@H](C(=O)N[C@@H](Cc1ccccc1)C(O)CN(Cc1ccc(C)cc1)NC(=O)[C@@H](NC(=O)OC)C(C)C)C(C)C (stereo partly drawn) = 30
• CCOC(=O)NC(C(=O)N[C@@H](Cc1ccccc1)[C@H](O)CN(CC1CCCCC1)NC(=O)C(NC(=O)OC)C(C)C)C(C)C (stereo partly drawn) = 1000
• COC(=O)N[C@H](C(=O)N[C@@H](Cc1ccccc1)C(O)CN(Cc1ccc(F)cc1)NC(=O)[C@@H](NC(=O)OC)C(C)C)C(C)C (stereo partly drawn) = 1000
• COC(=O)NC(C(=O)NN(Cc1ccc(OC)cc1)C[C@H](O)[C@H](Cc1ccccc1)NC(=O)[C@H](CC(N)=O)NC(=O)c1ccc2ccccc2n1)C(C)C (stereo partly drawn) = 1000
• COCCOC(=O)NC(C(=O)NC(Cc1ccccc1)C(O)CN(CC1CCCCC1)NC(=O)C(NC(=O)OC)C(C)C)C(C)C (stereo not drawn) = 100
• CCOC(=O)NC(C(=O)N[C@@H](Cc1ccccc1)[C@H](O)CN(CC1CCCCC1)NC(=O)C(NC(=O)OCC)C(C)C)C(C)C (stereo partly drawn) = 1000
• CC(C)(C)NC(=O)[C@@H]1C[C@@H]2CCCC[C@@H]2CN1C[C@@H](O)[C@H](Cc1ccccc1)NC(=O)[C@H](CC(N)=O)NC(=O)c1ccc2ccccc2n1 = 10
• COc1ccc(CN(C[C@H](O)[C@H](Cc2ccccc2)NC(=O)[C@H](CC(N)=O)NC(=O)c2ccc3ccccc3n2)NC(=O)C(NC(=O)OCc2ccccc2)C(C)C)cc1 (stereo partly drawn) = 30
• COC(=O)N[C@H](C(=O)N[C@@H](Cc1ccccc1)C(O)CN(Cc1ccc(C(F)(F)F)cc1)NC(=O)[C@@H](NC(=O)OC)C(C)C)C(C)C (stereo partly drawn) = 100
• COC(=O)N[C@H](C(=O)N[C@@H](Cc1ccccc1)C(O)CN(Cc1cccs1)NC(=O)[C@@H](NC(=O)OC)C(C)C)C(C)C (stereo partly drawn) = 100

----------
- ASSAY INFO: Plasma Concentration after 120 min of oral administration to mice
- Format: ADME, organism-based
- COND: mouse
ENDPOINT NAME: log10(concentration at 2 h) (log10 of the value in nM)

- CCOC(=O)NC(C(=O)N[C@@H](Cc1ccccc1)[C@H](O)CN(CC1CCCCC1)NC(=O)C(NC(=O)OC)C(C)C)C(C)C (stereo partly drawn): 3.15
- CC(C)C(NC(=O)OCc1ccccc1)C(=O)NN(CC1CCCCC1)C[C@H](O)[C@H](Cc1ccccc1)NC(=O)[C@H](CC(N)=O)NC(=O)c1ccc2ccccc2n1 (stereo partly drawn): 3.04
- COCCOC(=O)NC(C(=O)NN(CC1CCCCC1)C[C@@H](O)[C@H](Cc1ccccc1)NC(=O)C(NC(=O)OC)C(C)C)C(C)C (stereo partly drawn): 3.49
- C=CCOC(=O)NC(C(=O)N[C@@H](Cc1ccccc1)[C@H](O)CN(CC1CCCCC1)NC(=O)C(NC(=O)OCC=C)C(C)C)C(C)C (stereo partly drawn): 3.00
- CCOC(=O)NC(C(=O)N[C@@H](Cc1ccccc1)[C@H](O)CN(CC1CCCCC1)NC(=O)C(NC(=O)OCC)C(C)C)C(C)C (stereo partly drawn): 3.94
- COC(=O)N[C@H](C(=O)N[C@@H](Cc1ccccc1)C(O)CN(CCC(C)C)NC(=O)[C@@H](NC(=O)OC)C(C)C)C(C)C (stereo partly drawn): 2.48
- CCOC(=O)NC(C(=O)N[C@@H](Cc1ccccc1)[C@H](O)CN(CC1CCCCC1)NC(=O)C(NC(=O)OCCOC)C(C)C)C(C)C (stereo partly drawn): 3.18
- CCOC(=O)NC(C(=O)NN(CC1CCCCC1)C[C@@H](O)[C@H](Cc1ccccc1)NC(=O)C(NC(=O)OC)C(C)C)C(C)C (stereo partly drawn): 3.78

Data provenance is ChEMBL document CHEMBL1129270.
